Each entry below carries its reported PBM E-score.
target.or.system: Yer184c (UniProt P39961)
Sequence: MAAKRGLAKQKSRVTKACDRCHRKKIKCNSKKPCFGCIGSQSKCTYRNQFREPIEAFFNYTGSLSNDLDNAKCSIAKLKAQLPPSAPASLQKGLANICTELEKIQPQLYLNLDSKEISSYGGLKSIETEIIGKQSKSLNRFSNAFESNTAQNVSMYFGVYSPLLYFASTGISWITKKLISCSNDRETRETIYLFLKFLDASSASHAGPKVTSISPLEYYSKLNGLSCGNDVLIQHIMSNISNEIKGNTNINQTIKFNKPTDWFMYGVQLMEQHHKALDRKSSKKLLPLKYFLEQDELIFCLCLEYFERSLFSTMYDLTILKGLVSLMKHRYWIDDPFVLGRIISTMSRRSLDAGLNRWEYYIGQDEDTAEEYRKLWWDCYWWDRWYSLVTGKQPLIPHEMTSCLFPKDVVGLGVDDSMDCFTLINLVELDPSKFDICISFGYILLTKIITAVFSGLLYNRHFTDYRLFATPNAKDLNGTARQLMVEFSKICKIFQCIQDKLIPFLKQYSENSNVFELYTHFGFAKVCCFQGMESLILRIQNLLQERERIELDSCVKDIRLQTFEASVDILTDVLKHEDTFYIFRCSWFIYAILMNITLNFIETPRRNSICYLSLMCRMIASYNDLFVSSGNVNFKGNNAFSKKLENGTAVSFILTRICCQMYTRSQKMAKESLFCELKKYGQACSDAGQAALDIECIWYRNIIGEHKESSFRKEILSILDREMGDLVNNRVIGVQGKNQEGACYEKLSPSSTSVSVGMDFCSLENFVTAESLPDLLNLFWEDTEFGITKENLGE
assay: PBM E-score (8-mer binding enrichment) (E-score (-0.5 to 0.5)); higher = stronger / more preferred TF binding
assay.context: protein concentration: 100 nM; construct: GST-full length
Over roughly 33,000 sequences, “E-score (-0.5 to 0.5)” has its median near -0.016; the highest 2% begin near 0.3. Many of the other results were omitted from the sample, so the highest values are more common in it than they were.
experimental.readout: PBM E-score

> print(dat)
    monomer.sequence          target.or.system  result.value
 1          AGGATGAA  Yer184c (UniProt P39961)       -0.0513
 2          AGTGGCCC  Yer184c (UniProt P39961)        -0.153
 3          AAGCGAGT  Yer184c (UniProt P39961)         0.225
 4          TCTCAAGA  Yer184c (UniProt P39961)       -0.0209
 5          GCTATGGA  Yer184c (UniProt P39961)        -0.192
 6          ACGGCCGA  Yer184c (UniProt P39961)         0.355
 7          GGGATAAC  Yer184c (UniProt P39961)       -0.0432
 8          CATCCGAA  Yer184c (UniProt P39961)         0.338
 9          AACCGGTA  Yer184c (UniProt P39961)        0.0801
10          GATCCGAC  Yer184c (UniProt P39961)        0.0808
11          CGCCGGTA  Yer184c (UniProt P39961)         0.216
12          GCTCCGAA  Yer184c (UniProt P39961)         0.298
13          GTATCTTA  Yer184c (UniProt P39961)         0.197
14          CGGATAAA  Yer184c (UniProt P39961)         0.417
15          CCTCGGAA  Yer184c (UniProt P39961)          0.28
16          AATGTCCG  Yer184c (UniProt P39961)         0.283
17          ACGGCCGC  Yer184c (UniProt P39961)         0.244
18          TCCTGCGA  Yer184c (UniProt P39961)       0.00447
19          ATGGTTTC  Yer184c (UniProt P39961)        0.0728
20          CCGGCCGA  Yer184c (UniProt P39961)         0.431
21          ACGGCCGT  Yer184c (UniProt P39961)         0.176
22          ATACACGG  Yer184c (UniProt P39961)         0.047
23          AGCCGGTA  Yer184c (UniProt P39961)         0.306
24          GTGATAAA  Yer184c (UniProt P39961)         0.179
25          AGTCTCAG  Yer184c (UniProt P39961)        -0.104
26          CGTAAGTC  Yer184c (UniProt P39961)      -0.00193
27          CCCTAGAC  Yer184c (UniProt P39961)        -0.189
28          TGGATAAA  Yer184c (UniProt P39961)          0.18
29          ACGGCCGG  Yer184c (UniProt P39961)         0.372
30          GATCCGAA  Yer184c (UniProt P39961)         0.375
31          AGGATAAC  Yer184c (UniProt P39961)        -0.197
32          CTCCGGCC  Yer184c (UniProt P39961)         0.125
33          TATCCGCA  Yer184c (UniProt P39961)         0.293
34          CATCCGAC  Yer184c (UniProt P39961)         0.247
35          ACTATATA  Yer184c (UniProt P39961)          0.19
36          CTCCAGAG  Yer184c (UniProt P39961)        -0.154
37          CGTGGCAA  Yer184c (UniProt P39961)       -0.0803
38          GATTTGTA  Yer184c (UniProt P39961)         0.103
39          TGTCGGAA  Yer184c (UniProt P39961)         0.163
40          GCTCGGTA  Yer184c (UniProt P39961)         0.129
41          GCATTGCC  Yer184c (UniProt P39961)       -0.0318
42          ACTCGGAT  Yer184c (UniProt P39961)         0.268
43          CGGATGAG  Yer184c (UniProt P39961)         0.171
44          GCTCGGAA  Yer184c (UniProt P39961)         0.334
45          ACTGTTGA  Yer184c (UniProt P39961)       -0.0706
46          CGGATAAC  Yer184c (UniProt P39961)          0.34
